- Tested on: Downy Brome
- ASSAY_PROTOCOL: Pre-emergence herbicide test
- Type: in vivo
- ASSAY_CONDITIONS: Bromus tectorum, 11.21 kg/ha, read-out: % plant inhibition (Dobr)

SAMPLE_SMILES: CC(=O)OCc1cc(-c2nn(C)c(C(F)(F)F)c2Cl)c(F)cc1Cl
inhibition at 11210 g/ha / %: 70
//
SAMPLE_SMILES: Cc1cc(-c2c(Cl)c(C(F)(F)F)nn2C)c(F)cc1Cl
inhibition at 11210 g/ha / %: 100
//
SAMPLE_SMILES: Cn1nc(C(F)(F)F)c(Cl)c1-c1ccc(F)cc1F
inhibition at 11210 g/ha / %: 20
//
SAMPLE_SMILES: Cn1nc(-c2ccc(Cl)cc2)c(Cl)c1C(F)(F)F
inhibition at 11210 g/ha / %: 100
//
SAMPLE_SMILES: Cn1nc(-c2cc(S(=O)(=O)Cl)c(Cl)cc2Cl)c(Cl)c1C(F)(F)F
inhibition at 11210 g/ha / %: 0
//
SAMPLE_SMILES: Cc1cc(-c2nn(C)c(C(F)(F)F)c2Cl)c(F)cc1Cl
inhibition at 11210 g/ha / %: 100

* * *

- Tested on: Indian Mustard
- ASSAY_PROTOCOL: Pre-emergence herbicide test
- Type: in vivo
- ASSAY_CONDITIONS: Brassica juncea, 11.21 kg/ha, read-out: % plant inhibition (Inmu)
MEASURED_ENDPOINT: inhibition at 11210 g/ha (%)

SAMPLE_SMILES: Cn1nc(C(F)(F)F)c(Cl)c1-c1ccc(Cl)cc1F
EXPERIMENTAL_SYSTEM: Indian Mustard
QUANTITATIVE_READOUT: 100
//
SAMPLE_SMILES: Cn1nc(C(F)(F)Cl)c(Cl)c1-c1ccc(Cl)cc1
EXPERIMENTAL_SYSTEM: Indian Mustard
QUANTITATIVE_READOUT: 50
//
SAMPLE_SMILES: Cn1nc(-c2cc(N(S(C)(=O)=O)S(C)(=O)=O)c(Cl)cc2Cl)c(Cl)c1C(F)(F)F
EXPERIMENTAL_SYSTEM: Indian Mustard
QUANTITATIVE_READOUT: 70
//
SAMPLE_SMILES: Cc1cc(-c2nn(C)c(C(F)(F)F)c2Cl)c(F)cc1Cl
EXPERIMENTAL_SYSTEM: Indian Mustard
QUANTITATIVE_READOUT: 100
//
SAMPLE_SMILES: CC(=O)OCc1cc(-c2nn(C)c(C(F)(F)F)c2Cl)c(F)cc1Cl
EXPERIMENTAL_SYSTEM: Indian Mustard
QUANTITATIVE_READOUT: 100
//
SAMPLE_SMILES: Cn1nc(-c2cc(S(=O)(=O)Cl)c(Cl)cc2Cl)c(Cl)c1C(F)(F)F
EXPERIMENTAL_SYSTEM: Indian Mustard
QUANTITATIVE_READOUT: 70
//
SAMPLE_SMILES: COc1cc(-c2c(Cl)c(C(F)(F)F)nn2C)c(F)cc1[N+](=O)[O-]
EXPERIMENTAL_SYSTEM: Indian Mustard
QUANTITATIVE_READOUT: 90
//
SAMPLE_SMILES: CCS(=O)(=O)N(c1cc(-c2nn(C)c(C(F)(F)F)c2Cl)c(Cl)cc1Cl)S(=O)(=O)CC
EXPERIMENTAL_SYSTEM: Indian Mustard
QUANTITATIVE_READOUT: 10
//
SAMPLE_SMILES: Cc1cc(-c2c(Cl)c(C(F)(F)F)nn2C)c(F)cc1Cl
EXPERIMENTAL_SYSTEM: Indian Mustard
QUANTITATIVE_READOUT: 100
//
SAMPLE_SMILES: C#CCOc1cc(-c2nn(C)c(C(F)(F)F)c2Cl)c(F)cc1Cl
EXPERIMENTAL_SYSTEM: Indian Mustard
QUANTITATIVE_READOUT: 100
//
SAMPLE_SMILES: Cn1nc(-c2cc(Oc3ccc(C(F)(F)F)cc3)c(Cl)cc2F)c(Cl)c1C(F)(F)F
EXPERIMENTAL_SYSTEM: Indian Mustard
QUANTITATIVE_READOUT: 30
//
SAMPLE_SMILES: Cn1nc(C(F)(F)F)c(Br)c1-c1cc(F)ccc1F
EXPERIMENTAL_SYSTEM: Indian Mustard
QUANTITATIVE_READOUT: 0
//
SAMPLE_SMILES: COc1cc(F)c(-c2c(Cl)c(C(F)(F)F)nn2C)cc1[N+](=O)[O-]
EXPERIMENTAL_SYSTEM: Indian Mustard
QUANTITATIVE_READOUT: 0
//
SAMPLE_SMILES: Cn1nc(-c2cc(N3CCOCC3)c(Cl)cc2F)c(Cl)c1C(F)(F)F
EXPERIMENTAL_SYSTEM: Indian Mustard
QUANTITATIVE_READOUT: 100
//
SAMPLE_SMILES: Cn1nc(-c2cc(CBr)c(Cl)cc2F)c(Cl)c1C(F)(F)F
EXPERIMENTAL_SYSTEM: Indian Mustard
QUANTITATIVE_READOUT: 100
//
SAMPLE_SMILES: COc1cc(-c2c(Cl)c(C(F)(F)F)nn2C)c(F)cc1N
EXPERIMENTAL_SYSTEM: Indian Mustard
QUANTITATIVE_READOUT: 20
//
SAMPLE_SMILES: Cn1nc(C(F)(F)F)c(Cl)c1-c1cc(F)ccc1F
EXPERIMENTAL_SYSTEM: Indian Mustard
QUANTITATIVE_READOUT: 0
//
SAMPLE_SMILES: Cn1nc(C(F)(F)F)c(Cl)c1-c1ccc(F)cc1F
EXPERIMENTAL_SYSTEM: Indian Mustard
QUANTITATIVE_READOUT: 30
//
SAMPLE_SMILES: Cn1nc(-c2cc(Oc3ccc(C(F)(F)F)cc3Cl)c(Cl)cc2F)c(Cl)c1C(F)(F)F
EXPERIMENTAL_SYSTEM: Indian Mustard
QUANTITATIVE_READOUT: 0
//
SAMPLE_SMILES: Cn1nc(-c2ccc(Cl)cc2)c(Cl)c1C(F)(F)Cl
EXPERIMENTAL_SYSTEM: Indian Mustard
QUANTITATIVE_READOUT: 60
//
SAMPLE_SMILES: Cn1nc(-c2cc(F)c(Cl)cc2Cl)c(Cl)c1C(F)(F)F
EXPERIMENTAL_SYSTEM: Indian Mustard
QUANTITATIVE_READOUT: 100
//
SAMPLE_SMILES: Cn1nc(C(F)(F)F)c(Cl)c1-c1cc(F)c([N+](=O)[O-])cc1F
EXPERIMENTAL_SYSTEM: Indian Mustard
QUANTITATIVE_READOUT: 80
//
SAMPLE_SMILES: Cn1nc(-c2cc(NC(=O)C3(Br)CC3)c(Cl)cc2F)c(Cl)c1C(F)(F)F
EXPERIMENTAL_SYSTEM: Indian Mustard
QUANTITATIVE_READOUT: 30
//
SAMPLE_SMILES: Cn1nc(C(F)(F)F)c(Cl)c1-c1ccc(Cl)cc1
EXPERIMENTAL_SYSTEM: Indian Mustard
QUANTITATIVE_READOUT: 50
//
SAMPLE_SMILES: Cn1nc(C(F)F)c(Cl)c1-c1cc(F)ccc1F
EXPERIMENTAL_SYSTEM: Indian Mustard
QUANTITATIVE_READOUT: 20
//
SAMPLE_SMILES: Cn1nc(-c2cc(CC(N)=O)c(Cl)cc2F)c(Cl)c1C(F)(F)F
EXPERIMENTAL_SYSTEM: Indian Mustard
QUANTITATIVE_READOUT: 100
//
SAMPLE_SMILES: Cn1nc(-c2cc(NC(=O)C(F)(F)F)c(Cl)cc2Cl)c(Cl)c1C(F)(F)F
EXPERIMENTAL_SYSTEM: Indian Mustard
QUANTITATIVE_READOUT: 20
//
SAMPLE_SMILES: CC(C)OC(=O)COCc1cc(-c2nn(C)c(C(F)(F)F)c2Cl)c(F)cc1Cl
EXPERIMENTAL_SYSTEM: Indian Mustard
QUANTITATIVE_READOUT: 100
//
SAMPLE_SMILES: CNC(=O)Cc1cc(-c2nn(C)c(C(F)(F)F)c2Cl)c(F)cc1Cl
EXPERIMENTAL_SYSTEM: Indian Mustard
QUANTITATIVE_READOUT: 100
//
SAMPLE_SMILES: Cn1nc(C(F)(F)F)c(Cl)c1-c1cc(F)c(Cl)cc1Cl
EXPERIMENTAL_SYSTEM: Indian Mustard
QUANTITATIVE_READOUT: 80
//
SAMPLE_SMILES: Cc1cc(-c2c(Cl)c(C(F)F)nn2C)c(F)cc1Cl
EXPERIMENTAL_SYSTEM: Indian Mustard
QUANTITATIVE_READOUT: 100
//
SAMPLE_SMILES: Cn1nc(-c2cc([N+](=O)[O-])c(Cl)cc2Cl)c(Cl)c1C(F)(F)F
EXPERIMENTAL_SYSTEM: Indian Mustard
QUANTITATIVE_READOUT: 30
//
SAMPLE_SMILES: Cn1nc(-c2ccc([N+](=O)[O-])cc2)c(Cl)c1C(F)(F)F
EXPERIMENTAL_SYSTEM: Indian Mustard
QUANTITATIVE_READOUT: 20
//
SAMPLE_SMILES: C#CCOc1cc(-c2nn(C)c(C(F)(F)Cl)c2Cl)c(F)cc1Cl
EXPERIMENTAL_SYSTEM: Indian Mustard
QUANTITATIVE_READOUT: 100
//
SAMPLE_SMILES: Cn1nc(-c2cc(C(Br)Br)c(Cl)cc2F)c(Cl)c1C(F)(F)F
EXPERIMENTAL_SYSTEM: Indian Mustard
QUANTITATIVE_READOUT: 90
//
SAMPLE_SMILES: Cn1nc(-c2ccc(Cl)cc2)c(Cl)c1C(F)(F)F
EXPERIMENTAL_SYSTEM: Indian Mustard
QUANTITATIVE_READOUT: 80
